target: Adrenergic receptor beta (Homo sapiens) (UniProt P08588+P07550+P13945); assay: In vivo beta adrenergic receptor blocking potency was determined by inhibition of tachycardia produced by isoproterenol (0.2 mg/kg iv) in cat preparation; type: functional, organism-based; details: Felis catus; in the assay text read “0.2 µg/kg iv” for “0.2 mg/kg iv”; target entry is the homologue from another species
metric: ED50 (mg/kg)
Kindly answer with a numeric value in mg/kg, unit omitted.

Below, 4 compounds whose answers are already recorded.
>>> assay_result("O=C(NCCNCC(O)COc1ccccc1)c1cc(O)ccc1O (stereo not given)")
0.616
>>> assay_result("O=C(Cc1ccccc1)NCCNCC(O)COc1ccccc1 (stereo not given)")
0.029
>>> assay_result("O=C(NCCNCC(O)COc1ccccc1[N+](=O)[O-])Nc1ccccc1 (stereo not given)")
0.052
>>> assay_result("CC(CNC(=O)Cc1ccccc1)NCC(O)COc1ccccc1C#N (stereo not given)")
0.004

Moving on to another compound below.
Could you share which ED50 value was measured for NC(=O)NCCNCC(O)COc1ccccc1 (stereo not given) ?
0.012

---

target: Adrenergic receptor beta (Homo sapiens) (UniProt P08588+P07550+P13945); assay: In vivo beta adrenergic receptor blocking potency was determined by inhibition of tachycardia produced by isoproterenol (0.2 mg/kg iv) in cat preparation; type: functional, organism-based; details: Felis catus; target entry is the homologue from another species; in the assay text read “0.2 µg/kg iv” for “0.2 mg/kg iv”
ED50 overview
Kindly answer with a numeric value in mg/kg, unit omitted.

Below, 2 compounds whose answers are already recorded.
>>> assay_result("CC(C)NC(=O)NCCNCC(O)COc1ccccc1C#N (stereo not drawn)")
0.168
>>> assay_result("O=C(NCCNCC(O)COc1ccccc1)c1ccc(O)c(O)c1 (stereo not drawn)")
0.014

Moving on to another compound below.
Could you share which ED50 value was measured for C=CCOc1ccccc1OCC(O)CNCCNC(=O)Nc1ccccc1 (stereo not drawn) ?
0.037

---

biological target: Adrenergic receptor beta (Homo sapiens) (UniProt P08588+P07550+P13945); assay: In vivo beta adrenergic receptor blocking potency was determined by inhibition of tachycardia produced by isoproterenol (0.2 mg/kg iv) in cat preparation; format: functional, organism-based; settings: Felis catus; in the assay text read “0.2 µg/kg iv” for “0.2 mg/kg iv”; target entry is the homologue from another species
metric: ED50 (mg/kg)
Kindly answer with a numeric value in mg/kg, unit omitted.

>>> assay_result("CNC(=O)NCCNCC(O)COc1ccccc1C#N (configuration not stated)")
0.044

Form: Entry = N#Cc1ccccc1OCC(O)CNCCNC(N)=O (configuration not stated) | System = Adrenergic receptor beta (Homo sapiens) (UniProt P08588+P07550+P13945) | ED50 = ____
0.06

Form: Entry = CCCCCC(=O)NCC(C)NCC(O)COc1ccccc1 (configuration not stated) | System = Adrenergic receptor beta (Homo sapiens) (UniProt P08588+P07550+P13945) | ED50 = ____
0.005

Form: Entry = CC(C)NC(=O)NCCNCC(O)COc1ccccc1 (configuration not stated) | System = Adrenergic receptor beta (Homo sapiens) (UniProt P08588+P07550+P13945) | ED50 = ____
0.099

---

target: Adrenergic receptor beta (Homo sapiens) (UniProt P08588+P07550+P13945); test: In vivo beta adrenergic receptor blocking potency was determined by inhibition of tachycardia produced by isoproterenol (0.2 mg/kg iv) in cat preparation; assay type: functional, organism-based; conditions: Felis catus; in the assay text read “0.2 µg/kg iv” for “0.2 mg/kg iv”; target entry is the homologue from another species
metric: ED50 (mg/kg)
Kindly answer with a numeric value in mg/kg, unit omitted.

>>> assay_result("O=C(COc1ccccc1)NCCNCC(O)COc1ccccc1 (stereo unspecified)")
0.038
>>> assay_result("CCCCNC(=O)NCCNCC(O)COc1ccccc1C#N (stereo unspecified)")
0.304
>>> assay_result("O=C(NCCNCC(O)COc1ccccc1)c1ccccc1Cl (stereo unspecified)")
0.161
>>> assay_result("CS(=O)(=O)NCCNCC(O)COc1ccccc1 (stereo unspecified)")
0.039
>>> assay_result("N#Cc1ccccc1OCC(O)CNCCNC(=O)Nc1ccccc1[N+](=O)[O-] (stereo unspecified)")
0.097

Could you share which ED50 value was measured for CC(C)(OC(=O)NCCNCC(O)COc1ccccc1)c1ccc(Cl)cc1 (stereo unspecified) ?
0.078
